- Measurement Description: H69AR cell proliferation blockers – human, duplicate replicates, primary screen (AID 580);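 further: 100% = mean luminescence of untreated wells and 0% = no signal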
- Condition Parameters: H69AR lung tumor cells viability, ATP luminescence, 72 h; at 10 µM; hits give low values
The threshold is 90%. Values of viability beneath it are tagged 1.0; values meeting or exceeding it are tagged 0.0.

COc1ccc(CCNC(=O)c2c(N)n(CCN3CCOCC3)c3nc4ccccc4nc23)cc1: 1.0
c1ccc(C2CC3CC(c4ccco4)N2O3)cc1 (stereo unspecified): 0.0
CC1=C(C(=O)N2CCC3(CC2)OCCO3)C2(CCC(C)CC2)OC1=O (stereo unspecified): 0.0
O=C(Cc1ccccc1)OC(COCc1ccccc1)CN1CCOCC1 (stereo unspecified): 0.0
Cc1ccc(-c2nc(CS(=O)CC(=O)N3CCC4(CC3)OCCO4)c(C)o2)cc1 (stereo unspecified): 1.0

Given "CCc1ccc(OCCCN=C(C)c2c(O)n(C)c(=O)n(C)c2=O)cc1" , is recorded viability strictly lower than 90%? 1.0

Identify whether the molecule "CN1C[C@H](CNC(=O)OCc2ccccc2)C[C@@H]2c3cccc4c3c(cn4C)C[C@H]21" records viability below 90%. 1.0

A record lists CCC(C(=O)N1CCC2(CC1)OCCO2)c1ccccc1 (stereo unspecified) . Is its viability below 90%? 0.0

----------
- Measurement Description: viability of HCT116 without oncogenic beta-catenin – human colon tumor cells, pilot screen (AID 823);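 further: 0% = wells killed by 20 µM Hyamine and 100% = untreated DMSO cell wells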
- Condition Parameters: HCT116 beta-catenin knockout viability, CellTiter-Glo, 60 h; at 10 µM; hits give low values
Records with an inconclusive call do not appear.
Values of viability strictly less than 90% map to satisfied, and values of at least 90% map to not satisfied.

Study these solved cases before continuing.
Cc1cc(Br)ccc1N1C(=O)CC(=O)NC1=O: not satisfied
C[C@H]1CCCC(=O)CCC/C=C/c2cc(O)cc(O)c2C(=O)O1: satisfied
CCCCCP(=O)(O)c1ccccc1: not satisfied
CCCCn1c(C)c(C(=O)OCC)c2c(CN3CCOCC3)c(O)ccc21: satisfied
COC(=O)C(O)(c1ccc(N(C)S(=O)(=O)c2ccccc2)cc1)C(F)(F)F (stereo not given): not satisfied
Cc1ccc2occ(CN3CC4CC(C3)c3cccc(=O)n3C4)c(=O)c2c1 (stereo not given): not satisfied

For "Cn1c(O)c(C=NCCOc2ccc(Cl)cc2)c(=O)n(C)c1=O" , is the recorded viability below the cut-off of 90%? not satisfied

Consider CC1CCCCN1CC(=O)c1ccc2cc[nH]c2c1 (stereo not given) . Does its viability lie strictly below 90%? not satisfied

Take the compound "CC(CO)(CO)N=Cc1c(O)n(-c2cccc3ccccc23)c(=O)[nH]c1=O" and say whether its viability is less than 90%. not satisfied

Is viability of "Cc1nc2cc(C(F)(F)F)ccc2n1C1CCN(Cc2nnnn2Cc2cccs2)CC1" strictly below 90%? satisfied

Is 90% strictly greater than the compound's reported viability? compound: COc1ccc(C2C(C(=O)N3CCC4(CC3)OCCO4)c3cc(OC)c(OC)cc3C(=O)N2C)cc1 (stereo not given) not satisfied

In the record for CCN(c1ccc(C(O)(C(=O)OC)C(F)(F)F)cc1)S(=O)(=O)c1ccccc1 (stereo not given) , is viability less than 90%? not satisfied

Problem: For the compound "CC1(C)CN=C(Nc2ccc(F)c(F)c2)S1" , is viability under 90%? not satisfied

Given the entry "Cc1ccc(CC2C(=O)N(C)C(=O)N(C)C2=O)s1" , would its reported viability be below 90%? not satisfied

Identify whether the compound "CCOC(=O)c1c(C)n(Cc2ccco2)c2ccc(OC)cc12" records viability below 90%. satisfied

State whether 90% exceeds viability recorded for NC(=O)CN1CC(c2ccccc2)CC1=O (stereo not given) . not satisfied

Determine if "CCCCCCOc1ccc(CN2CCN(C)CC2)cc1" shows viability strictly lower than 90%. satisfied

Is viability of "CP(C)(=O)CCC(=O)O" strictly below 90%? not satisfied

----------
- Tested Target: Pantothenate synthetase (Mycobacterium tuberculosis (strain ATCC 25618 / H37Rv)) (UniProt P9WIL5)
- Sequence (P9WIL5 whole entry, looked up): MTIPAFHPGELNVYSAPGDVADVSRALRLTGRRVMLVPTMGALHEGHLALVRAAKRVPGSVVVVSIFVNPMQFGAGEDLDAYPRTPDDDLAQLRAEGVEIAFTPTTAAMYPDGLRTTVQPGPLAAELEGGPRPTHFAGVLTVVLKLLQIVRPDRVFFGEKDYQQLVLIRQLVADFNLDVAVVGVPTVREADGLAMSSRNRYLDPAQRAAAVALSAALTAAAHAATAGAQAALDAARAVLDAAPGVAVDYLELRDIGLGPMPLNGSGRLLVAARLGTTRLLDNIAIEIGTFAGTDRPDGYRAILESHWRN
- Measurement Description: Coupled enzyme confirmation of inhibitors against recombinant Mtb PanC (AID 375);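 further: 0% = full reaction with vehicle and 100% = no enzyme background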
- Condition Parameters: coupled enzyme assay; at 10 µM, hits give high values
Activity calls are given as the source filed them. The rule behind the calls is not given here.
Exercise: for every item that follows, state its recorded inhibition.

// known answers, use as guide
CCOCC(=O)Nc1ccc(S(=O)(=O)N2CCOCC2)cc1: 0% (inactive)
Cc1cc(Cl)c(S(=O)(=O)Nc2ccc3c(c2)OCCO3)cc1OCC(N)=O: 0% (inactive)
O=C(Nc1ccc(Cl)cn1)c1cccnc1: 0% (inactive)
CCC(C)(C)n1nnnc1C(c1ccccc1OC)N1CCSCC1 (centres undefined): 5% (inactive)

Working through the 8 compounds below one at a time, give inhibition for each.
1. Cc1ccc(N2CCN(C(=O)c3ccccc3Br)CC2)c(C)c1
2. C=Cn1c(C(=O)O)cc(CC)c1-c1ccccc1
3. COc1ccc(Cl)cc1C(=O)n1nc(C)cc1C
4. Cc1cc(C)cc(N(CC(=O)Nc2cccc(C)n2)S(=O)(=O)c2c(C)noc2C)c1
5. CCOc1ccc2c(c1)sc1nc(C(=O)OC)cc(=O)n12
6. CCc1c(C(=O)N2CCOCC2)csc1C
7. COCCN(CC(=O)Nc1ccccc1C)S(=O)(=O)c1ccc(S(=O)(=O)N2CCCC2)cc1
8. CCOC(=O)c1cc2c(=O)n3ccccc3nc2n(CCCOC)c1=NC(=O)C(C)(C)C

1. 6% (inactive)
2. 9% (inactive)
3. 0% (inactive)
4. 0% (inactive)
5. 0% (inactive)
6. 0% (inactive)
7. 0% (inactive)
8. 4% (inactive)

Batch of 8 compounds: report inhibition for each.
1. CCCc1n[nH]c2c1/C(=N/O)CC(c1ccccc1)C2 (centres undefined)
2. CCOc1ccccc1C(=O)NCC(=O)OCC(=O)N1C(C)CCCC1C (centres undefined)
3. O=C(NCC12CC3CC(C1)CC(CNC(=O)N1CCCC1)(C3)C2)N1CCCC1
4. O=C(Nc1ccccn1)NC(C(F)(F)F)C(F)(F)F
5. CCCCN(CC)CCNC(=O)c1cc2c(C)nc3ccccc3c2o1
6. O=S(=O)(NCc1cn2ccccc2n1)c1cc(F)ccc1F
7. Cc1ccc(-c2nn3c(=O)c(C)nnc3s2)cc1
8. O=C(NCCN1CCCCCC1)c1ccc(N2CCCC2=O)cc1

1. 8% (inactive)
2. 7% (inactive)
3. 0% (inactive)
4. 0% (inactive)
5. 10% (inactive)
6. 2% (inactive)
7. 0% (inactive)
8. 1% (inactive)

Please give inhibition for each item listed below.
1. COc1ccc(-n2c(N)c(C(=O)NCc3ccco3)c3nc4ccccc4nc32)c(OC)c1
2. O=S1(=O)C=C(Sc2nc3ccccc3s2)c2ccccc21
3. CC1(C)OC(=O)N(c2cccnc2)C1(C)O (centres undefined)
4. COc1ccc(OC)c(S(=O)(=O)Nc2ccccc2C(=O)O)c1

1. 4% (inactive)
2. 0% (inactive)
3. 3% (inactive)
4. 6% (inactive)

----------
- Tested Target: Pantothenate synthetase (Mycobacterium tuberculosis (strain ATCC 25618 / H37Rv))
- Measurement Description: Coupled enzyme confirmation of inhibitors against recombinant Mtb PanC (AID 375);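 further: 0% = full reaction with vehicle and 100% = no enzyme background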
- Condition Parameters: coupled enzyme assay; at 10 µM, hits give high values
Reported Endpoint: inhibition (%)
Numbers only, in %.

CCn1nc(CC(=O)Nc2nnc(CC(=O)N3CCCCC3)s2)c2ccccc2c1=O: 0
Cc1nnc(SCc2cn3ccsc3n2)n(N)c1=O: 0
Cc1oc(-c2ccccc2F)nc1CS(=O)(=O)CC(=O)N1CCN(Cc2ccccc2)CC1: 0
CN1CCN(c2ncnc3c2cnn3-c2ccc(Cl)cc2)CC1: 1
O=C(CSc1nc(C2CCCCC2)n(-c2ccccc2)n1)NCCN1C(=O)CSC1=O: 6

Provide inhibition values for the following items, in order.
1. O=C(Nc1cc(C(F)(F)F)ccc1Cl)C1CCN(c2nnc(-n3cccc3)s2)CC1
2. COC(=O)c1ccccc1NC(=O)N1CCCC1
3. CC(=O)C1=C(O)C(=O)N(Cc2ccco2)C1c1ccc2c(c1)OCO2 (configuration not stated)
4. Cc1ccc(C)c(N(CC(=O)NC2CCCC2)C(=O)CCCC(=O)Nc2ccccn2)c1
5. Nc1nc(SCc2nc3scc(-c4cccs4)c3c(=O)[nH]2)n[nH]1
6. CC(NCc1ccco1)C(=O)N1CCc2ccccc2C1 (configuration not stated)
7. Cc1cc(C)c(Cn2c(=O)n(CCCC(=O)NCc3ccco3)c(=O)c3ccccc32)c(C)c1

3
0
3
2
6
5
7

Each molecule below has a recorded value; state its inhibition.
1. Cn1c(=O)c2c(nc(Br)n2CCSc2ncccn2)n(C)c1=O
2. CCN(CC)CCOC(=O)C1(c2ccc(OC)c(OC)c2)CCCC1

1: 9; 2: 12

Each molecule below has a recorded value; state its inhibition.
1. O=C(C1CCCN(S(=O)(=O)c2ccc(Br)s2)C1)N1CCCCCC1 (configuration not stated)
2. CC1C(c2ccccc2)N(C)CCC12NC(=O)NC2=O (configuration not stated)
3. CCOc1ccc(S(=O)(=O)Nc2ccccc2C(=O)Nc2ccccc2N2CCOCC2)cc1
4. COc1cccc(C2CC(=O)Nc3c2c(=O)n(C)c(=O)n3C)c1OC (configuration not stated)
5. Cc1ccc(F)cc1NC(=O)C1CCCN(c2ncccn2)C1 (configuration not stated)

1: 0; 2: 1; 3: 1; 4: 6; 5: 7

For each of the molecules below, state inhibition.
1. COc1cc2cc(C(c3nnnn3C3CCCC3)N3CCCCCC3)c(=O)[nH]c2cc1OC (configuration not stated)
2. Cc1ccc(C)c(-n2c(Cc3cc(=O)[nH]c(=O)[nH]3)nnc2SCC(=O)NCc2ccco2)c1
3. CC(C)(C)C(=O)CNS(=O)(=O)c1ccc(S(=O)(=O)NC2CCCC2)cc1

5
0
0
